Data credit: the RNAGym collection of RNA variant scans (doi:10.7554/elife.80360)

B1: Hairpin Ribozyme (parent)
chain: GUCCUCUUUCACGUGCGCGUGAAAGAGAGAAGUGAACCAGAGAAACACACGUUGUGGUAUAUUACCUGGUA

- Variants of: B1
- assayExplanation: self-cleavage, relative activity (ratio to wild type); higher = more cleavage; co-transcriptional
Please go through the items and note down their self-cleavage.
One number for each entry.

Example results:
> print(dat)
          var  recordedresult
 1  C37U U60A           0.352
 2  A30U C38G           0.108
 3  A36C A47G          0.0823
 4  A49U G68A           0.172
 5   C3A A22U           0.702
 6  A24C U52A            1.05
 7  A26C A41U            0.74
 8  G25U C50U           0.287
 9  A30G G32C           0.106
10   U7C A49G           0.478

Please give self-cleavage, item by item, for the list that follows.
1. A61U U70A
2. C3U U20C
3. U60A G68C
4. C6A C48A
5. U7G G40U
6. U8G C38U
7. C38U A44U

[reply]
1: 0.175; 2: 0.38; 3: 0.236; 4: 0.084; 5: 0.214; 6: 0.548; 7: 0.135
